- Experimental Target: T1, PUF4 RNA-binding domain (Saccharomyces cerevisiae, UniProt P25339 537-888)
- T1 sequence: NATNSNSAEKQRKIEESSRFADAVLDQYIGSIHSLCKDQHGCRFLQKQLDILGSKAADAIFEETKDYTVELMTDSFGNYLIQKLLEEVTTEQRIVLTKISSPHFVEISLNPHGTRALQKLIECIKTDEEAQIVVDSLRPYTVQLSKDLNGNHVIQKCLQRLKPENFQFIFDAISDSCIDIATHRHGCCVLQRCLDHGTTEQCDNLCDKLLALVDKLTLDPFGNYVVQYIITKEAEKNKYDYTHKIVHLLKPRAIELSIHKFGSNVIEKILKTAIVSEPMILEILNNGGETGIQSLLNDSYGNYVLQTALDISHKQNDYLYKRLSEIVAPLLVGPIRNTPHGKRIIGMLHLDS
- Assay Protocol: Mg; RNA-MaP; 20 mM Na-HEPES pH 7.4, 30 mM KOAc, 0.75 mM MgCl2, 0.1% Tween-20, 5% glycerol, 0.1 mg/mL BSA, 2 mM DTT; 25 C; 0.0125-409.6 nM protein
- Experimental Parameters: tags: N-His6-TEV cleaved; C-SNAP kept, Cy3B-labelled; label: tethered on chip by stalled RNA polymerase
pKd: −log10 of the molar value.
Label n if pKd falls below 8; label y in every other case.

Ask: Evaluate UCUCUUUGUACUUCCCUCUCUU (ssRNA) [Ic_S1_P5E.1_K5.1_C5.1_H5.1_A5.1_[T5C]_[A7T]_F5.1_[T8C]_[T9C]_[A10C]_T5.1] : pKd at minimum 8?
Result: n

Ask: Evaluate Id_ii_S2_P5E.2_K5.1_C5.2_[C-2A]_[T-1C]_H5.1_A5.1_F5.1_T5.2_[A12C] (ssRNA) RNA: UUUGAUUAAUAUGAUAUCGUUCUUUCUACUGUAUUAUUAUCUUCUUUCUCGAUAUCAUAUUAAUCUUU : pKd at minimum 8?
Result: y

Ask: Evaluate UCUCUUUGUAUCUUAUUCUCUU (ssRNA) [Ic_S1_P5E.1_K5.1_C5.1_H5.1_A5.1_[T6C]_[A7T]_F5.1_[T9A]_[A10T]_T5.1] : pKd at minimum 8?
Result: y

Ask: Evaluate UCUCUUUGUAGUUAUUUCUCUU (ssRNA) [Ic_S1_P5E.1_K5.1_C5.1_H5.1_A5.1_[T5G]_[A7T]_F5.1_[T8A]_[A10T]_T5.1] : pKd at minimum 8?
Result: n

Ask: Evaluate UCUCUUUGUAAACUAUUCUCUU (ssRNA) [Ic_S1_P5E.1_K5.1_C5.1_H5.1_A5.1_[T5A]_[T6A]_[A7C]_F5.1_[T9A]_[A10T]_T5.1] : pKd at minimum 8?
Result: y

Ask: Evaluate UCUCUUUGUAACUCAGUCUCUU (ssRNA) [Ic_S1_P5E.1_K5.1_C5.1_H5.1_A5.1_[T5A]_[T6C]_[A7T]_F5.1_[T8C]_[T9A]_[A10G]_T5.1] : pKd at minimum 8?
Result: n

Ask: Evaluate UCUCUUCUUAUAUUAUCUCUU (ssRNA) [Ib_S1_P4E.1_K4.1_C4.1_H4.1_[T1C]_[G2T]_A4.1_F4.1_T4.1] : pKd at minimum 8?
Result: n

Ask: Evaluate Id_ii_S4_P3E.4_K3.3_C3.2_[C-2G]_[T-1C]_H3.3_A3.1_F3.1_T3.2 (ssRNA) RNA: UUUGACAACUGAUCGUUCUUUCUGCACACUAUAUAUUCUUUCUCGAUCAGUUGUCUUU : pKd at minimum 8?
Result: n

Ask: Evaluate ACAAACAAUAUAUAUUACUACAAAC (ssRNA) [Id_ii_S3_P4E.3_K4.2_C4.2_[C-2A]_[T-1A]_H4.2_A4.1_F4.1_T4.2_[G10C]] : pKd at minimum 8?
Result: n

Ask: Evaluate Ib_S4_P4E.1_K4.1_C4.1_H4.1_[G2A]_[A4T]_A4.1_F4.1_T4.1 (ssRNA) RNA: UUUGACAACUGAUCGUUCUUUCUUAUUUAUUAUUCUUUCUCGAUCAGUUGUCUUU : pKd at minimum 8?
Result: n
